Field: koff. Provide a value for each of the binders that follow.
Target: biotinylated α-elapitoxin-Dpp2d from Dendroaspis polylepis (Dendroaspis polylepis (black mamba), UniProt C0HJD7)
Sequence (C0HJD7 whole entry): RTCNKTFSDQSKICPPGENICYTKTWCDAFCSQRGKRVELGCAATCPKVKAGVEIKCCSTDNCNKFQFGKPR
Test: BLI; […]; association at pH 7.4, dissociation at pH 7.4; 1:1 global fit, […]
Details: both partners purified
Report as a plain number; the unit s⁻¹ is understood.

Reported koff for E01 Fab (Fab, V domains shown) VH: QVQLVQSGAEVKKPGSSVKVSCKASGGTFSSYAISWVRQAPGQGLEWMGGIIPIFGTANYAQKFQGRVTITADESTSTAYMELRSLRSDDTAVYYCARDNLGYCSGGSCYSDYYYYYMDVWGQGTLVTVSS VL: NFMLTQPRSVSESPGKTVTISCTRSSGSIGSDYVHWYQQRPGSSPTTVIYEDNRRPSGVPDRFSGSIASSANSASLTISGLRPEDEADYYCQSYDSTTNHVVFGGGTKVTVL was 0.00014

Query C05 Fab, parental mAb 368_01_C05, with the N-glycosylation site of CDR-L3 removed (C05-NS) (Fab, V domains shown) VH: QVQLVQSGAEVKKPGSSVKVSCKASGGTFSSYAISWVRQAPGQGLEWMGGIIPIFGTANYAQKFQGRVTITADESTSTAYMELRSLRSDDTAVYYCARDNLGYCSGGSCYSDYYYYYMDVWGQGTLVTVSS VL: NFMLTQPHSVSESPGKTVTISCTRSSGSIASTYVHWYQQRPGSAPTTVIYEDNQRPSGVPDRFSGSIDSSSNSASLTISGLKTEDEADYYCQSYDSSSGSVVFGGGTKLTVL yields koff of 0.00034

Input B11 Fab (Fab, V domains shown) VH: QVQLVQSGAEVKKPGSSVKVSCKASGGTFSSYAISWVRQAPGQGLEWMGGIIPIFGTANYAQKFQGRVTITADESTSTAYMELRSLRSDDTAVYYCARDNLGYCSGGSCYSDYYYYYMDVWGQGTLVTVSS VL: SYELTQPPSVSVAPGQTATITCGGHNIGSNIVHWYHQKPGQAPELVISHNTNRPSGIPERFSGSNSGSTATLTISRVEAVDEADYYCQVWDSSSEHVVFGGGTKVTVL . Output koff: 9e-05

Noted for G09 Fab (Fab, V domains shown) VH: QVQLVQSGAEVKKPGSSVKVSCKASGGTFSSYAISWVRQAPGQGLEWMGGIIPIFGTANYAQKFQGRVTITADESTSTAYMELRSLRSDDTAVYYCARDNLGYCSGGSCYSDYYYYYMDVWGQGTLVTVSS VL: SYELTQPPSVSVAPGRTATITCEGDNIGQQIVHWYRQKSDQAPVVVVYDGSRRPSGIPERFSGSNSGNTATLTISRVEAGDEADYYCQVWDITSDHVVFGGGTQLTVL : its koff reads 0.00015

koff reported for this binder A12 Fab (Fab, V domains shown) VH: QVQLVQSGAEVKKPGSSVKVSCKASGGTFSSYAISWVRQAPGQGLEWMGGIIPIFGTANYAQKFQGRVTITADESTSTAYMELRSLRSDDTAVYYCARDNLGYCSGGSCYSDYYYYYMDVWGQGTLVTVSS VL: NFMLTQPHSVSESPGKTVTFSCTRSSGRIVSDYVHWYQQRPGSAPTTVIYEDNQRPSGVPDRFSGSIDSSSNSASLTISGLKTEDEADYYCQSYDSSNAYVVFGGGTKVTVL : 0.00015

For reference, reported koff for A04 Fab (Fab, V domains shown) VH: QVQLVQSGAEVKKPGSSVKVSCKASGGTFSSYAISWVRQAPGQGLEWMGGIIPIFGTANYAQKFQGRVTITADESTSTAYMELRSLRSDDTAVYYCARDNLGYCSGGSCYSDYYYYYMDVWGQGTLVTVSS VL: SYELTQPPSMSVAPGQTARITCGGDYIGGESVHWYQQKPGRAPVAVVYDDTHRPSGIPERFSGANSGNTATLTISKVEAGDEADYYCQVWDVSSDHVVFGGGTKLTVL stands at 9e-05
